molecular target: LIMK1 (Homo sapiens, UniProt P53667); test: Kinase Profiler, residual kinase activity; format: biochemical; conditions: LIMK1; inhibitor at 500 nM; read-out: percentage of the remaining kinase activity
Sequence (P53667 whole entry): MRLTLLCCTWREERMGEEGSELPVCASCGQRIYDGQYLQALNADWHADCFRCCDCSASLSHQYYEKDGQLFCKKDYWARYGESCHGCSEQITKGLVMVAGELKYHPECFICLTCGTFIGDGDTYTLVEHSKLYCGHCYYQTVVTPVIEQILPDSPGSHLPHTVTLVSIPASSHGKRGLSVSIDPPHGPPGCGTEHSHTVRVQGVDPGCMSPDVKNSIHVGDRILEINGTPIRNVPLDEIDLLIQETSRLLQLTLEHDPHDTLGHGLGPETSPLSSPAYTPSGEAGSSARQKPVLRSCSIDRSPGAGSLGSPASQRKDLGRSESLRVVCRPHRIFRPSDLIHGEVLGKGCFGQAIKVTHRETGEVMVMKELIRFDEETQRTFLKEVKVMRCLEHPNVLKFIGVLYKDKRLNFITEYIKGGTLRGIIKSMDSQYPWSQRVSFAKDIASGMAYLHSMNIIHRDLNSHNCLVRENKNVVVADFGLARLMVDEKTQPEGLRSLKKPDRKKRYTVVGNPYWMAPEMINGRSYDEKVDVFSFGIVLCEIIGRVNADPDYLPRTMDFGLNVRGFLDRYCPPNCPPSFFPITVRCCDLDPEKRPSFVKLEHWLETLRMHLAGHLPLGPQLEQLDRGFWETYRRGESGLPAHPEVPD
Checkbox rule: remaining activity at 0.5 µM lower than 60% = rule met; remaining activity at 0.5 µM not lower than 60% = rule not met.

>>> group_label("COC1C(N(C)C(=O)C(N)Cc2cn(C(=O)OC(C)(C)C)c3ccccc23)CC2OC1(C)n1c3ccccc3c3c4c(c5c6ccccc6n2c5c31)C(=O)NC4 (stereo not shown) [Compound 2]")
"rule not met"
>>> group_label("COC1C(N(C)C(=O)C(N)CCC(=O)OC(C)(C)C)CC2OC1(C)n1c3ccccc3c3c4c(c5c6ccccc6n2c5c31)C(=O)NC4 (stereo not shown) [Compound 6]")
"rule met"
>>> group_label("COC1C(N(C)C(=O)C(N)CCC(=O)O)CC2OC1(C)n1c3ccccc3c3c4c(c5c6ccccc6n2c5c31)C(=O)NC4 (stereo not shown) [Compound 7]")
"rule met"
>>> group_label("COC1C(N(C)C(=O)C(N)Cc2ccc(O)cc2)CC2OC1(C)n1c3ccccc3c3c4c(c5c6ccccc6n2c5c31)C(=O)NC4 (stereo not shown) [Compound 5]")
"rule met"
>>> group_label("COC1C(N(C)C(=O)C(N)Cc2c[nH]cn2)CC2OC1(C)n1c3ccccc3c3c4c(c5c6ccccc6n2c5c31)C(=O)NC4 (stereo not shown) [Compound 1]")
"rule met"
>>> group_label("COC1C(N(C)Cc2ccc(-c3ccccc3)cc2)CC2OC1(C)n1c3ccccc3c3c4c(c5c6ccccc6n2c5c31)C(=O)NC4 (stereo not shown) [Compound 9]")
"rule met"
>>> group_label("COC1C(N(C)C(=O)C(N)Cc2ccc(OC(C)(C)C)cc2)CC2OC1(C)n1c3ccccc3c3c4c(c5c6ccccc6n2c5c31)C(=O)NC4 (stereo not shown) [Compound 4]")
"rule not met"
